Record form. Attribute: residual activity. Fill in for each entry.
Measured On: Tyrosine-protein kinase ABL1 (Homo sapiens)
Condition Parameters: at 10 µM
Don't forget the unit after the number, please.

## Input So what residual activity did Cc1cccc(-c2[nH]c(C(C)(C)C)nc2-c2ccc3c(c2)OCO3)n1 get with Tyrosine-protein kinase ABL1 (Homo sapiens)?
## Output 102%

## Input Query Nc1cccc(-c2cc3c(Oc4cccc(O)c4)ncnc3[nH]2)c1 next
## Output -5%

## Input Here is the next molecule: Nc1n[nH]c2nnc(-c3c(-c4ccccc4)nn4ccccc34)cc12
## Output 19%

## Input Entry COc1ccc(S(=O)(=O)N(CCO)c2ccccc2CN(C)C/C=C/c2ccc(Cl)cc2)cc1 please
## Output 118%

## Input CCN(CC)CCCCN1c2ccccc2Oc2ccc(Cl)cc21 , same question.
## Output 102%

## Input Please answer likewise for COc1cccc(-c2cc(=O)c3ccccc3o2)c1N
## Output 92%

## Input Would you kindly repeat that for O=C1Nc2ccc(Br)cc2/C1=C\c1cc2c([nH]1)CCCC2 ?
## Output 75%

## Input Now the molecule Nc1nc(Nc2ccc(S(N)(=O)=O)cc2)nn1C(=S)Nc1c(F)cccc1F
## Output -5%

## Input Again, but for O=C(Nc1cccc(Nc2nccc(Nc3cccc(C(F)(F)F)c3)n2)c1)C1CC1
## Output 76%

## Input Let us now turn to CCC(=O)Nc1ccc2ncnc(Nc3cccc(Br)c3)c2c1
## Output 89%

## Input Would you mind doing CN(C)c1ccc(/C=C2\C(=O)Nc3ccccc32)cc1 as well?
## Output 87%

## Input Check CO[C@H]1C[C@@H]2CC[C@@H](C)[C@@](O)(O2)C(=O)C(=O)N2CCCC[C@H]2C(=O)O[C@H]([C@H](C)C[C@@H]2CC[C@@H](O)[C@H](OC)C2)CC(=O)[C@H](C)/C=C(\C)[C@@H](O)[C@@H](OC)C(=O)[C@H](C)C[C@H](C)/C=C/C=C/C=C/1C too.
## Output 139%

## Input // repeat for C[C@@H](N)[C@H]1CC[C@H](C(=O)Nc2ccncc2)CC1 and report
## Output 101%

## Input Try this molecule too: O=C1Nc2ccccc2/C1=C1/Nc2ccccc2/C1=N\OCCC(O)CO (stereo not given)
## Output 43%

## Input Okay, and Cn1cc(/C=C2\C(=O)Nc3ccc(S(N)(=O)=O)cc32)c2ccccc21 ?
## Output 22%

## Input Follow-up entry: N#C/C(=C(\N)Sc1ccc(N)cc1)c1ccccc1C(F)(F)F
## Output 87%

## Input Queued: COc1cc2ncc(-c3ccccc3)nc2cc1OC
## Output 83%

## Input Same question for O=C1NC(=O)/C(=C/c2ccc3c(c2)OC(F)(F)O3)S1 please.
## Output 79%

## Input Now this one: O=C(Nc1cccc(Nc2cc(Nc3cccc(C(F)(F)F)c3)ncn2)c1)C1CC1
## Output 104%

## Input And what about the molecule O=c1c2ccccc2[nH]c(=S)n1CCN1CCC(=C(c2ccc(F)cc2)c2ccc(F)cc2)CC1 ?
## Output 124%
